# Measured Target: T1, recombinant HMG1 produced in E. coli as calmodulin binding protein (CBP) fusion (human)
# T1 chain: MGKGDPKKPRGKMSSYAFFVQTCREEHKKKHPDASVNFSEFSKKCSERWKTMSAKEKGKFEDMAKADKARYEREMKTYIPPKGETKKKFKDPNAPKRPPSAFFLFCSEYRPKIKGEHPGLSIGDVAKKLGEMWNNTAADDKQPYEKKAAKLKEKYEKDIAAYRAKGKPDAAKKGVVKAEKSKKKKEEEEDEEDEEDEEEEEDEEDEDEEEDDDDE
# Protocol Text: cell-based or functional assay
Listed here are binders together with their documented IC50, inhibition of HMG1 stimulated NO release from macrophages.
Assay Metric: IC50, inhibition of HMG1 stimulated NO release from macrophages (µg/mL)

[[record]]
binder = "anti-HMG1 antibody G20 (antibody, V domains shown) VH: EVQLLESGGGLVQPGGSLRLSCAASGFTFSWYDMFWVRQAPGKGLEWVSWISPSGGYTKYADSVKGRFTISRDNSKNTLYLQMNSLRAEDTAMYYCARSGLDYYDSSGYLDAFDIWGQGTMVTVSS VL: DIQMTQSPSSVSASVGDRVTITCRASQDVSIWLAWYQQKPGKAPKLLIFGASRLQSGVPSRFSGSRSGADFTLTIDSVQPEDFASYYCQQADSFPLTFGGGTKVEIK"
value_unit = "µg/mL"
test_result = 20.4

[[record]]
binder = "anti-HMG1 antibody S17 (antibody, V domains shown) VH: EVQLLESGGGLVQPGGSLRLSCAASGFTFSYYDMHWVRQAPGKGLEWVSRISPSGGYTWYADSVKGRFTISRDNSKNTLYLQMNSLRAEDTAVYYCTRGRYTSGWHEYFDPWGQGTLVTVSS VL: DIQMTQSPSSLSASVGDRVTITCRASQSIGTYLNWYQQKPGTAPKVLIYAASSLQSGVPSRFSGSGSGTDFTLTISSLQPEDFSTYYCQQSYNTPRTFGQGTKLEIK"
value_unit = "µg/mL"
test_result = 41.7

[[record]]
binder = "anti-HMG1 antibody E11 (antibody, V domains shown) VH: EVQLLESGGGLVQPGGSLRLSCAASGFTFSRYQMNWVRQAPGKGLEWVSSISPSGGHTHYADSVKGRFTISRDNSKNTLYLQMNSLRAEDTAVYYCAKDGRQGKISTVDHWGQGTLVTVSS VL: DIQMTQSPGTLSLSPGERATLSCRASQSVRSNFLAWYQQKPGQAPRLLIYGASRRASGIPDRFSGSGFGADFTLSISRLEPEDFAVYYCQQYGSSPNTFGQGSRVEIK"
value_unit = "µg/mL"
test_result = 101

[[record]]
binder = "anti-HMG1 antibody G16 (antibody, V domains shown) VH: EVQLLESGGGLVQPGGSLRLSCAASGFTFSWYKMTWVRQAPGKGLEWVSSISPSGGFTSYADSVKGRFTISRDNSKNTLYLQMNSLRAEDTAVYYCARDLDIRHAFDIWGQGTMVTVSS VL: DIQMTQSPGTLSLSPGESGTLSCRASESVSSRHFAWYQQKPGQAPRLLIYGASSRPTGIPDRFSGSGSGTDFTLTLSRLEPEDFAVYFCQYYGSSPYTFGGGTKVEMK"
value_unit = "µg/mL"
test_result = 22


Data provenance is patent US20090169546A1.
